# credit: the supplement of paper PMC10811239

System: LEGO organoid PT (PTEN-/-; TP53-/-)
Assay: bioluminescence (viable cell) signal fold change after vs before treatment, normalised to DMSO (ratio); higher = more tumour cell growth / less inhibition
Settings: 10 µM; treatment time 6 days
Provide the reported bioluminescence of each item.

| MOLECULE | SUBJECT_OF_TEST | READOUT_KIND | REPORTED |
| --- | --- | --- | --- |
| Cl.OC(CCN1CCCCC1)(c1ccccc1)C1CCCCC1 (racemic) [DL-trihexyphenidyl hydrochloride] | LEGO organoid PT (PTEN-/-; TP53-/-) | bioluminescence | 1.67 |
| CC(=O)Nc1ccc(O)cc1 [Acetaminophen] | LEGO organoid PT (PTEN-/-; TP53-/-) | bioluminescence | 1.19 |
| CCc1cc2c(cc1N1CCC(N3CCOCC3)CC1)C(C)(C)c1[nH]c3cc(C#N)ccc3c1C2=O [Alectinib] | LEGO organoid PT (PTEN-/-; TP53-/-) | bioluminescence | 1.13 |

Please give bioluminescence for each item listed below.
1. C[C@]12C=CC(=O)C=C1CC[C@@H]1[C@@H]2[C@@H](O)C[C@@]2(C)[C@H]1CC[C@]2(O)C(=O)CO [Prednisolone]
2. Nc1nc(Cl)nc2c1ncn2[C@H]1C[C@H](O)[C@@H](CO)O1 [Cladribine]
3. O=C(CCCN1CCC(O)(c2ccc(Cl)cc2)CC1)c1ccc(F)cc1 [Haloperidol]
4. CS(=O)(=O)c1ccc(C2=C(c3ccccc3)C(=O)OC2)cc1 [Rofecoxib]
5. CC[C@H](C)C(=O)O[C@H]1C[C@@H](C)C=C2C=C[C@H](C)[C@H](CC[C@@H]3C[C@@H](O)CC(=O)O3)[C@H]21 [Lovastatin]
6. NC(=O)c1cn(Cc2c(F)cccc2F)nn1 [Rufinamide]
7. O=C1CCc2ccc(OCCCCN3CCN(c4cccc(Cl)c4Cl)CC3)cc2N1 [Aripiprazole]
8. CNS(=O)(=O)CCc1ccc2[nH]cc(C3CCN(C)CC3)c2c1.Cl [Naratriptan hydrochloride]

## Result
1: 0.904; 2: 1.81; 3: 0.925; 4: 1.25; 5: 1.33; 6: 0.54; 7: 0.399; 8: 0.774

Please give bioluminescence for each item listed below.
1. O=C(O)Cc1ccccc1Nc1c(Cl)cccc1Cl [Diclofenac]
2. N[C@H](C(=O)O)[C@H](O)c1ccc(O)c(O)c1 [Droxidopa]

## Result
1.11
1.08

Please give bioluminescence for each item listed below.
1. CNC(=O)c1cc(Oc2ccc(NC(=O)Nc3ccc(Cl)c(C(F)(F)F)c3)cc2)ccn1.Cc1ccc(S(=O)(=O)O)cc1 [Sorafenib tosylate]
2. Nc1nc(=O)c2c(CCc3ccc(C(=O)N[C@@H](CCC(=O)[O-])C(=O)[O-])cc3)c[nH]c2[nH]1.Nc1nc(=O)c2c(CCc3ccc(C(=O)N[C@@H](CCC(=O)[O-])C(=O)[O-])cc3)c[nH]c2[nH]1.O.O.O.O.O.[Na+].[Na+].[Na+].[Na+] [Pemetrexed Disodium Hydrate]
3. C[C@H](Cn1cnc2c(N)ncnc21)OCP(=O)(O)O [Tenofovir]

## Result
0.401
1.33
0.702

Please give bioluminescence for each item listed below.
1. COCCOC(=O)C1=C(C)NC(C)=C(C(=O)OC(C)C)C1c1cccc([N+](=O)[O-])c1 (stereo not given) [Nimodipine]
2. Cc1ccccc1C(OCCN(C)C)c1ccccc1.O=C(O)CC(O)(CC(=O)O)C(=O)O (stereo not given) [Orphenadrine Citrate]
3. CC1(C)O[C@@H]2[C@@H](CO[C@@]3(COS(N)(=O)=O)OC(C)(C)O[C@@H]23)O1 [Topiramate]

## Result
1. 1.49
2. 0.847
3. 1.02

Please give bioluminescence for each item listed below.
1. Cc1ccnc2c1NC(=O)c1cccnc1N2C1CC1 [Nevirapine]
2. CNC(=O)c1cc(Oc2ccc(NC(=O)Nc3ccc(Cl)c(C(F)(F)F)c3)cc2)ccn1 [Sorafenib]
3. CCCCOc1ccc(C(=O)CCN2CCCCC2)cc1.Cl [Dyclonine hydrochloride]
4. O=C([O-])CCCc1ccccc1.[Na+] [Sodium Phenylbutyrate]

## Result
1: 2.15; 2: 0.335; 3: 0.967; 4: 1.37

Please give bioluminescence for each item listed below.
1. CC1=C(CC(=O)O)c2cc(F)ccc2/C1=C\c1ccc(S(C)=O)cc1 (stereo not given) [Sulindac]
2. CO[C@H]1C[C@@H]2CC[C@@H](C)[C@@](O)(O2)C(=O)C(=O)N2CCCC[C@H]2C(=O)O[C@H]([C@H](C)C[C@@H]2CC[C@@H](OC(=O)C(C)(CO)CO)[C@H](OC)C2)CC(=O)[C@H](C)/C=C(\C)[C@@H](O)[C@@H](OC)C(=O)[C@H](C)C[C@H](C)/C=C/C=C/C=C/1C [Temsirolimus]
3. COc1cc(C(C)=O)ccc1OCCCN1CCC(c2noc3cc(F)ccc23)CC1 [Iloperidone]
4. FC(F)(F)c1ccc(CNc2ccc(Cc3c[nH]c4ncc(Cl)cc34)cn2)cn1 [Pexidartinib]
5. CCN(CC)CC#CCOC(=O)C(O)(c1ccccc1)C1CCCCC1 (stereo not given) [Oxybutynin]
6. CN1[C@@H]2CC[C@H]1C[C@@H](OC(c1ccccc1)c1ccccc1)C2.CS(=O)(=O)O [Benztropine mesylate]
7. CN(C)CCCN1c2ccccc2CCc2ccc(Cl)cc21.Cl [Clomipramine hydrochloride]

## Result
1. 2.8
2. 1.26
3. 1.45
4. 0.7
5. 0.449
6. 1.14
7. 0.859
